Data credit: ChEMBL document CHEMBL5038612

system: HCT-15; assay: Antiproliferative activity against human HCT-15 cells assessed as reduction in cell viability after 48 hrs by Ez-cytoX based microplate reader method; assay type: functional; conditions: HCT-15, 48 h
measurement type: pIC50
One number for each entry, as −log10 of the molar value.

Below are worked cases with known answers.
INSERT INTO assay_data (smiles, measurement_type, number) VALUES
  ('Nc1ccc2c(c1)CCc1c(-c3ccccc3F)cc(-c3ccccc3O)nc1-2', 'pIC50', 5.95),
  ('Nc1ccc2c(c1)CCc1c(-c3ccc(F)cc3)cc(-c3ccc(O)cc3)nc1-2', 'pIC50', 5.53),
  ('Nc1ccc2c(c1)CCc1c(-c3cccc(OC(F)(F)F)c3)cc(-c3ccc(O)cc3)nc1-2', 'pIC50', 5.75);

Inquiry: Bench note: what pIC50 did Nc1ccc2c(c1)CCc1c(-c3ccccc3F)cc(-c3cccc(O)c3)nc1-2 show?
Reply text: 5.72

----------
Could you please report measured pIC50 for the items listed next?
tested on: HCT-15; test: Antiproliferative activity against human HCT-15 cells assessed as reduction in cell viability after 48 hrs by Ez-cytoX based microplate reader method; format: functional; conditions: HCT-15, 48 h
Numbers only, as −log10 of the molar value.

Dear colleague, could you please provide pIC50 for the molecules listed below?
1. Nc1ccc2c(c1)CCc1c(-c3cccc(F)c3)cc(-c3ccc(O)cc3)nc1-2
2. Nc1ccc2c(c1)CCc1c(-c3ccccc3F)cc(-c3ccc(O)cc3)nc1-2
3. Nc1ccc2c(c1)CCc1c(-c3cccc(F)c3)cc(-c3cccc(O)c3)nc1-2
4. Nc1ccc2c(c1)CCc1c(-c3ccc(F)cc3)cc(-c3cccc(O)c3)nc1-2

Reply text:
[5.73, 5.82, 5.41, 5.54]

List pIC50 for every entry below, keeping the order given.
1. Nc1ccc2c(c1)CCc1c(-c3ccccc3)cc(-c3ccc(O)cc3)nc1-2
2. Nc1ccc2c(c1)CCc1c(-c3cccc(OC(F)(F)F)c3)cc(-c3cccc(O)c3)nc1-2
3. Nc1ccc2c(c1)CCc1c(-c3ccccc3C(F)(F)F)cc(-c3cccc(O)c3)nc1-2
4. Nc1ccc2c(c1)CCc1c(-c3ccc(C(F)(F)F)cc3)cc(-c3ccc(O)cc3)nc1-2

Reply text:
1: 5.42; 2: 5.74; 3: 5.53; 4: 5.56

----------
target: DNA topoisomerase 2-alpha (Homo sapiens, UniProt P11388); assay: Inhibition of human topoisomerase 2 alpha mediated supercoiled pBR322 DNA relaxation at 100 uM by ethidium bromide staining based agarose gel electrophoresis relative to control
Sequence (P11388 whole entry): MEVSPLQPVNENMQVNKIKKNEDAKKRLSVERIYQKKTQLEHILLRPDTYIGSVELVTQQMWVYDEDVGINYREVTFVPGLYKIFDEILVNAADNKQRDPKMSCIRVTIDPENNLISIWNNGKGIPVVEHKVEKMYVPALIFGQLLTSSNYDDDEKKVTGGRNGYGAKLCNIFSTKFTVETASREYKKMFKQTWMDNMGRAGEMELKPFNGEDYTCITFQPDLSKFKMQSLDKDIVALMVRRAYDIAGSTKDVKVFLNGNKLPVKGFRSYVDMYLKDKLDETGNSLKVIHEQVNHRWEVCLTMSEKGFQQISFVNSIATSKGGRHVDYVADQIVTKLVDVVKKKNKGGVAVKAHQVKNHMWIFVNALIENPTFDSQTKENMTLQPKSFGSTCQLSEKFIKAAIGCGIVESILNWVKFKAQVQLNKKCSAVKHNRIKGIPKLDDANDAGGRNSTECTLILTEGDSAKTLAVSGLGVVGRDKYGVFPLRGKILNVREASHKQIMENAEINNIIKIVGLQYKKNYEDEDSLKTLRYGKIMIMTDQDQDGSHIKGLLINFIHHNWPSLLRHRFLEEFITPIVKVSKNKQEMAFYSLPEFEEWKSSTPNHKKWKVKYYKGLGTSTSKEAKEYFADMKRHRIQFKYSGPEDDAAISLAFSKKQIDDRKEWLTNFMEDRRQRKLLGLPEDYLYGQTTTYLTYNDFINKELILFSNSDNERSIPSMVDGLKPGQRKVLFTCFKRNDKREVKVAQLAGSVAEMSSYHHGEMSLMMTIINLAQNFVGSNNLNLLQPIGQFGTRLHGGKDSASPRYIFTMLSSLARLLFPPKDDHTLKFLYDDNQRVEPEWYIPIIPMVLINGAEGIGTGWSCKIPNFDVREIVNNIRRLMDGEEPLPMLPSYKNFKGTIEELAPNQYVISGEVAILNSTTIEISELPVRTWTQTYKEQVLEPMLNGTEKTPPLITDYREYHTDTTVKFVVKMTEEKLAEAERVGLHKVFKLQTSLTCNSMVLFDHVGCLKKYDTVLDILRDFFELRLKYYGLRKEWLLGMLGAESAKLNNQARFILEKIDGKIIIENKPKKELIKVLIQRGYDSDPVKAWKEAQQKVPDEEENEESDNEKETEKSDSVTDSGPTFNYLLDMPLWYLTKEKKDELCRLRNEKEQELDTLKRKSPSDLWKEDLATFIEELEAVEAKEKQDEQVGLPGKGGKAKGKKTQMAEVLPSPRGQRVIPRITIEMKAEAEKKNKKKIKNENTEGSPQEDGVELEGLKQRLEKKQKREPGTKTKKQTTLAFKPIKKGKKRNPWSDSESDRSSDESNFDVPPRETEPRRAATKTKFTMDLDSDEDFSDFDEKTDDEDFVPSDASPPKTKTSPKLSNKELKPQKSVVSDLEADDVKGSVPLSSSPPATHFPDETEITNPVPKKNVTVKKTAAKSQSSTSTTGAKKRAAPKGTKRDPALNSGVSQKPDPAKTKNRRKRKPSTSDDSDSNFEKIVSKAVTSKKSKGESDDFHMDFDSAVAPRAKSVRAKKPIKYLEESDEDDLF
measurement type: inhibition (%)
Numbers only, in %.

INSERT INTO assay_data (smiles, target_entity, units_symbol, number) VALUES
  ('Nc1ccc2c(c1)CCc1c(-c3cccc(F)c3)cc(-c3ccccc3O)nc1-2', 'DNA topoisomerase 2-alpha (Homo sapiens, UniProt P11388)', '%', 1.3),
  ('Nc1ccc2c(c1)CCc1c(-c3ccccc3F)cc(-c3ccc(O)cc3)nc1-2', 'DNA topoisomerase 2-alpha (Homo sapiens, UniProt P11388)', '%', 25.3),
  ('Nc1ccc2c(c1)CCc1c(-c3ccc(F)cc3)cc(-c3ccccc3O)nc1-2', 'DNA topoisomerase 2-alpha (Homo sapiens, UniProt P11388)', '%', 1.2),
  ('Nc1ccc2c(c1)CCc1c(-c3cccc(F)c3)cc(-c3ccc(O)cc3)nc1-2', 'DNA topoisomerase 2-alpha (Homo sapiens, UniProt P11388)', '%', 10.5),
  ('Nc1ccc2c(c1)CCc1c(-c3ccc(OC(F)(F)F)cc3)cc(-c3ccccc3O)nc1-2', 'DNA topoisomerase 2-alpha (Homo sapiens, UniProt P11388)', '%', 30.2);

Return reported inhibition values for all items listed beneath this line.
1. Nc1ccc2c(c1)CCc1c(-c3cccc(C(F)(F)F)c3)cc(-c3cccc(O)c3)nc1-2
2. Nc1ccc2c(c1)CCc1c(-c3ccc(OC(F)(F)F)cc3)cc(-c3ccc(O)cc3)nc1-2
3. Nc1ccc2c(c1)CCc1c(-c3ccc(C(F)(F)F)cc3)cc(-c3cccc(O)c3)nc1-2
4. Nc1ccc2c(c1)CCc1c(-c3ccccc3C(F)(F)F)cc(-c3ccc(O)cc3)nc1-2
5. Nc1ccc2c(c1)CCc1c(-c3ccc(F)cc3)cc(-c3cccc(O)c3)nc1-2
6. Nc1ccc2c(c1)CCc1c(-c3ccccc3C(F)(F)F)cc(-c3cccc(O)c3)nc1-2

Reply text:
[62.9, 36.5, 72.4, 81.9, 3.9, 87.4]

Below is a list of compounds. For each, state its recorded inhibition.
1. Nc1ccc2c(c1)CCc1c(-c3cccc(C(F)(F)F)c3)cc(-c3ccc(O)cc3)nc1-2
2. Nc1ccc2c(c1)CCc1c(-c3ccccc3)cc(-c3ccc(O)cc3)nc1-2
3. Nc1ccc2c(c1)CCc1c(-c3ccccc3OC(F)(F)F)cc(-c3ccccc3O)nc1-2
4. Nc1ccc2c(c1)CCc1c(-c3ccccc3F)cc(-c3cccc(O)c3)nc1-2
5. Nc1ccc2c(c1)CCc1c(-c3ccc(C(F)(F)F)cc3)cc(-c3ccc(O)cc3)nc1-2
6. Nc1ccc2c(c1)CCc1c(-c3ccccc3OC(F)(F)F)cc(-c3ccc(O)cc3)nc1-2
7. Nc1ccc2c(c1)CCc1c(-c3ccc(OC(F)(F)F)cc3)cc(-c3cccc(O)c3)nc1-2

Reply text:
1. 75
2. 21.7
3. 70
4. 4.3
5. 77.8
6. 72.5
7. 49

Inquiry: Give recorded inhibition with DNA topoisomerase 2-alpha (Homo sapiens, UniProt P11388) for the following compound: Nc1ccc2c(c1)CCc1c(-c3ccc(F)cc3)cc(-c3ccc(O)cc3)nc1-2
Reply text: 77.6
